Test: competitive ABPP of pPAFAH versus proteome hydrolases – biochemical, gel-based, FP-Rh fluorescence, complex proteome, SAR compounds, selectivity assay for pPAFAH inhibitor project, SAR follow-up (AID 588774)
Conditions: MW 30 kDa, anti-targets inhibited, at 10 µM
assay readout: anti-target count
Output spec: single numeric token, no unit.

In plain terms, Cc1cc(N2CCN(C(=O)Oc3ccc(-c4ccccc4)cc3)CC2)c2ccccc2n1 has a documented anti-target count of 0

In plain terms, O=C(N1CCOCC1)n1oc2cc(Cl)ccc2c1=O has a documented anti-target count of 6

In plain terms, Cc1cc(N2CCN(C(=O)n3ncc(-c4ccc(Cl)c(Cl)c4)n3)CC2)c2ccccc2n1 has a documented anti-target count of 8

In plain terms, COc1ccc(-c2cnn(C(=O)N3CCN(c4cc(C)nc5ccccc45)CC3)n2)cc1 has a documented anti-target count of 8

In plain terms, Cc1cc(N2CCN(C(=O)n3oc4cc(Cl)ccc4c3=O)CC2)c2ccccc2n1 has a documented anti-target count of 3

In plain terms, Cc1cc(N2CCN(C(=O)n3ncc(-c4ccc(OC(F)(F)F)cc4)n3)CC2)c2ccccc2n1 has a documented anti-target count of 9

In plain terms, Cc1cc(N2CCN(C(=O)Oc3noc4cc(Cl)ccc34)CC2)c2ccccc2n1 has a documented anti-target count of 4
